# credit: patent EP0329225A2

Biological target: Acetoacetyl-coenzyme A thiolase (Rattus norvegicus)
Construct: prepared from the livers of Sprague Dawley rats treated in the diet for one week with 0.075% lovastatin to induce the enzyme; from tissue; host or cells: liver of Sprague Dawley rats fed lovastatin
Sequence (Q5XI22 whole entry): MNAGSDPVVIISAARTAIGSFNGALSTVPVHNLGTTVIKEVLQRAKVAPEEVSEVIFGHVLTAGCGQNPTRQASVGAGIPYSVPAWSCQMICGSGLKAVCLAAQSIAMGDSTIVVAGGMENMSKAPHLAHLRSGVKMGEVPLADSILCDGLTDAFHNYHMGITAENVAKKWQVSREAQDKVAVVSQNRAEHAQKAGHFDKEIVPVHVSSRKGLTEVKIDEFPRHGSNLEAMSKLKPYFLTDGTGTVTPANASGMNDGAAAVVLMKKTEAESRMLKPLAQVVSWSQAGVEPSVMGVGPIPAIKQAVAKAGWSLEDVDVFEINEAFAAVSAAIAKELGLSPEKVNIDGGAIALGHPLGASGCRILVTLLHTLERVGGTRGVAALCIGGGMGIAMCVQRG
Test: Acetoacetyl-coenzyme A thiolase inhibition (coupled spectrophotometric assay, NADH oxidation at 340 nm)
Assay type: biochemical, Sprague Dawley rats
IC50: recorded values
Observable: IC50 (nM)

In [3]: df
Out[3]:
                                   molecule  qualifier_operator  value
0  COC(=O)CCCCCCCCC(O)C#CC#CC#C[Si](C)(C)C (centres unmarked) [Ex. 3]                   =     17
1  COC(=O)CCCCCCCCC(O)C#CC#C[Si](C)(C)C (centres unmarked) [Ex. 5]                   >  62000
